For each entry below, report its EDP (left ventricular end diastolic pressure) value.
# Test system: ischemic heart isolated from white rat
# method: Cardioprotective effect on isolated ischemic rat heart (Langendorff, 30 min global ischemia / 30 min reperfusion)
# measurement context: 10 μM; after reperfusion; baseline set at 5 mmHg
Give a bare numeral; the unit mmHg is implied.

Quick one: EDP (left ventricular end diastolic pressure) of `COC(OC)[C@]1(C)Oc2ccc([N+](=O)[O-])cc2[C@@H](n2c(=S)oc3ccccc32)[C@@H]1O` ?
29.3

Quick one: EDP (left ventricular end diastolic pressure) of `COC(OC)[C@]1(C)Oc2ccc([N+](=O)[O-])cc2[C@H](n2c(=S)oc3cc(C)ccc32)[C@H]1O` ?
21.0

Quick one: EDP (left ventricular end diastolic pressure) of `COC(OC)[C@]1(C)Oc2ccc(NC(=O)C(F)(F)F)cc2[C@H](n2c(=S)oc3ccccc32)[C@H]1O` ?
27.3

Quick one: EDP (left ventricular end diastolic pressure) of `COC(OC)[C@]1(C)Oc2ccc([N+](=O)[O-])cc2[C@H](n2c(=S)oc3ccc(Cl)cc32)[C@H]1O` ?
23.3
